# experimental_protocol: AUClast in C57BL/6 mouse at 10 mg/kg, po measured at 24 hrs by LC-MS/MS analysis
# Format: ADME, organism-based
# Parameters: time 24 hrs, dose 10 mg/kg, route po
# condition_label: in vivo
assay_metric: AUC(0-t) at 24 h (ng·h/mL)
I only need the number, in ng·h/mL, no unit after it.

Output measured AUC(0-t) at 24 h for this item: "Cc1c(C#N)cccc1-c1cc(-c2ccn(Cc3cccc(C(C)(C)O)c3)c(=O)c2)nc(N)n1"
24000

----------
# experimental_protocol: Oral bioavailability in C57BL/6 mouse at 10 mg/kg measured at 24 hrs by LC-MS/MS analysis
# Type: ADME, organism-based
# condition_label: in vivo
assay_metric: bioavailability (%)
Please respond with the number in % and leave the unit unwritten.

Let me know recorded bioavailability for "Cc1c(C#N)cccc1-c1cc(-c2ccn(Cc3cccc(C(C)(C)O)c3)c(=O)c2)nc(N)n1" , thanks.
86.1

Just for reference, ChEMBL document CHEMBL5380829 is where these values come from.
